System: resistant strains of Plutella xylostella
Experiment: Insecticidal synergistic activity with indoxacarb, leaf dip, resistant strains (Huizhou)
Type: in vivo
Conditions: in vivo
Counter-ions that a name gives are not always drawn.
PARAMETER: LC50 of indoxacarb (µg/mL)
Provide the reading as a plain figure in µg/mL.

Worked cases, answers included:
>  <MOLECULE>
O=C(NNC(=O)c1cc(-c2ccccc2)nn1-c1ccccc1)c1cc(=O)[nH]c2ccccc12 [PXG22]

>  <UNIT DESCRIPTOR>
µg/mL

>  <LC50 of indoxacarb>
51.21

$$$$
>  <MOLECULE>
Cc1csc(CC(=O)NNC(=O)c2cc(-c3ccccc3)nn2-c2ccccc2)n1 [PXG2]

>  <UNIT DESCRIPTOR>
µg/mL

>  <LC50 of indoxacarb>
39.93

$$$$
>  <MOLECULE>
CCOC(=O)/C=C\C(=O)OCC [DEM, diethyl maleate, reference compound]

>  <UNIT DESCRIPTOR>
µg/mL

>  <LC50 of indoxacarb>
54.11

$$$$

Now take the following molecule into account.
Ask: Request the reported LC50 of indoxacarb associated with O=C(NNC(=O)c1cc(-c2ccccc2)nn1-c1ccccc1)c1cc[nH]c(=O)c1 [PXG1]
Result: 59.13

---

100 μM Inhibition rate % listing for selected compounds.
Tested on: Spodoptera litura GSTs
Test: Inhibition of total GSTs enzyme of Spodoptera litura (CDNB method)
Type: biochemical
Settings: 100 μM
Provide the reading as a plain figure in %.

Worked cases, answers included:
>  <COMPOUND>
COc1ccccc1CC(=O)NNC(=O)c1cc(-c2ccccc2)nn1-c1ccccc1

>  <ASSAYED SYSTEM>
Spodoptera litura GSTs

>  <100 μM Inhibition rate %, %>
3.87

$$$$
>  <COMPOUND>
N#Cc1ccccc1OCC(=O)NNC(=O)c1cc(-c2ccccc2)nn1-c1ccccc1

>  <ASSAYED SYSTEM>
Spodoptera litura GSTs

>  <100 μM Inhibition rate %, %>
12.89

$$$$
>  <COMPOUND>
CN(C)S(=O)(=O)c1ccc(C(=O)NNC(=O)c2cc(-c3ccccc3)nn2-c2ccccc2)cc1

>  <ASSAYED SYSTEM>
Spodoptera litura GSTs

>  <100 μM Inhibition rate %, %>
4.60

$$$$

Ask: Request the reported 100 μM Inhibition rate % associated with O=C(NNC(=O)c1cc(-c2ccccc2)nn1-c1ccccc1)c1cc[nH]c(=O)c1
Result: 80.06

Ask: Request the reported 100 μM Inhibition rate % associated with CC1(c2ccccc2)NC(=O)N(NC(=O)c2cc(-c3ccccc3)nn2-c2ccccc2)C1=O (centres unmarked)
Result: 4.60

---

inhibition at 100 µM listing for selected compounds.
Molecular target: UniProt:D7URW9
Sequence (D7URW9 entry or part of it): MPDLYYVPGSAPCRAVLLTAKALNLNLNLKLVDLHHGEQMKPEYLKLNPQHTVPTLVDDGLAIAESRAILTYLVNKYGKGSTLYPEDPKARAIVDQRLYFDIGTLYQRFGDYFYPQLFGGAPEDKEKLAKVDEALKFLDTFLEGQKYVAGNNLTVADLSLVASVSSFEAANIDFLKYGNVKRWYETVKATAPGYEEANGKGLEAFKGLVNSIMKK
Assay: Inhibition of PxGSTδ1 recombinant protein
Format: biochemical
Conditions: read-out: 100 μM Inhibition rate %
Provide the reading as a plain figure in %.

Worked cases, answers included:
>  <COMPOUND>
O=C(NNC(=O)C1CCCC1)c1cc(-c2ccccc2)nn1-c1ccccc1

>  <inhibition at 100 µM / %>
70.9

$$$$
>  <COMPOUND>
CCC1(C)NC(=O)N(NC(=O)c2cc(-c3ccccc3)nn2-c2ccccc2)C1=O (centres unmarked)

>  <inhibition at 100 µM / %>
14.1

$$$$
>  <COMPOUND>
O=C(NNC(=O)c1cc(-c2ccccc2)nn1-c1ccccc1)c1ccccc1

>  <inhibition at 100 µM / %>
35.3

$$$$

Ask: Request the reported inhibition at 100 µM associated with O=C(NNC(=O)c1cc(-c2ccccc2)nn1-c1ccccc1)c1ccc(=O)[nH]n1
Result: 41.7

Ask: Request the reported inhibition at 100 µM associated with N#Cc1ccc(OCC(=O)NNC(=O)c2cc(-c3ccccc3)nn2-c2ccccc2)cc1
Result: 58.7
